target: T1, Anti-CD28 Fab (SEQ ID NOs: 696, 697); assay: phage ELISA on captured anti-CD28 Fab; wells pre-incubated with CD28 antigen as competitor;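 also: clonal phage from crude supernatants added to wells pretreated with blocking buffer with or without CD28, bound phage read by ELISA with HRP-conjugated anti-M13 antibody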
T1 construct: In the phage ELISA the Fab was biotinylated and captured on neutravidin coated plates
T1 sequence (VH, as listed by the source, chain 1 of 2): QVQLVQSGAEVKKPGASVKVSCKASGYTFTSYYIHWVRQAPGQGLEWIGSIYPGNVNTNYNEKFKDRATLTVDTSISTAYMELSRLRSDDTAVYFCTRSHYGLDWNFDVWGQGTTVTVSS
T1 sequence (VL, as listed by the source, chain 2 of 2): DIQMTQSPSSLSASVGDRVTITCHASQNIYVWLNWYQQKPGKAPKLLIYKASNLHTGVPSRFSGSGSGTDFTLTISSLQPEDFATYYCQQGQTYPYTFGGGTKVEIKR
Catalogue of Phage binding ELISA, Anti-CD28 Fab signal in the presence of CD28 values
// return just the number, without any unit appended

Worked cases, Phage binding ELISA, Anti-CD28 Fab signal in the presence of CD28 given:
[[record]]
binder = "SCADGAIWEWPWCF [Phage-1611]"
recorded_value = 0.07

[[record]]
binder = "SCSAGATYTWPACL [Phage-1605]"
recorded_value = 0.07

[[record]]
binder = "LCAAGAAWEWPMCF [Phage-1614]"
recorded_value = 0.06

[[record]]
binder = "SCAAGAHYPWPECL [Phage-1607]"
recorded_value = 0.05

[[record]]
binder = "RCAAVFSYTWPPCL [Phage-1618]"
recorded_value = 0.07


We now examine a further binder.
Q: Entry under review: TCSAGAHYSWPKCF [Phage-1606] . Reported Phage binding ELISA, Anti-CD28 Fab signal in the presence of CD28?
Ans: 0.07
